Values compiled from PubChem BioAssay AID1963843.

Test system: 616215-338-R-J1-PDC complex spheroid viability
Test: Anticancer human tumor 616215-338-R-J1-PDC patient-derived colon adenocarcinoma cell line growth inhibition [POLQ]
Details: curve of first compound; second compound 0.316 µM
pIC50: −log10 of the molar value.

{"columns": ["Compound", "Target Desc", "pIC50"],
 "data": [
  ["COc1ccc([C@@H](O)c2cc(-c3ncnc4cc(N5CCOCC5)ccc34)c(F)cc2Cl)nn1 + Cc1cccc(N(C)C(=O)C2C(O)CCN2c2nc(C)cc(C(F)(F)F)c2C#N)c1", "616215-338-R-J1-PDC complex spheroid viability", "< 5.00"],
  ["Cn1ncnc1[C@H]1c2n[nH]c(=O)c3cc(F)cc(c23)N[C@@H]1c1ccc(F)cc1 + COC1C(OC(N)=O)C(O)C(Oc2ccc3c(O)c(NC(=O)c4ccc(O)c(CC=C(C)C)c4)c(=O)oc3c2C)OC1(C)C", "616215-338-R-J1-PDC complex spheroid viability", "< 7.00"],
  ["CC(C)n1c(=O)n(C)c2cnc3cc(F)c(-c4ccc(OCCCN5CCCCC5)nc4)cc3c21 + Cc1cccc(N(C)C(=O)C2C(O)CCN2c2nc(C)cc(C(F)(F)F)c2C#N)c1", "616215-338-R-J1-PDC complex spheroid viability", "< 5.00"],
  ["Nc1ccn(C2OC(CO)C(O)C2(F)F)c(=O)n1 (centres undefined) + Nc1ccc(C#CCN(C(=O)Cc2ncc(C(F)(F)F)cc2C(F)(F)F)c2ccc(F)cc2)nn1", "616215-338-R-J1-PDC complex spheroid viability", "> 7.50"]
]}

###

Tested on: 616215-338-R-J1-PDC complex spheroid viability
Experiment: Anticancer human tumor 616215-338-R-J1-PDC cell line growth inhibition [POLQ];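 also: spheroids exposed to compounds for one week before readout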
Conditions: curve of first compound; second compound 0.1 µM
Measured IC50, listed per entry for reference.

{"columns": ["Compound", "Measure Unit", "Reading Qualifier", "IC50"],
 "data": [
  ["COc1cc(C2c3cc4c(cc3C(OC3OC5COC(C)OC5C(O)C3O)C3COC(=O)C23)OCO4)cc(OC)c1O (configuration not stated) + Nc1ccc(C#CCN(C(=O)Cc2ncc(C(F)(F)F)cc2C(F)(F)F)c2ccc(F)cc2)nn1", "nM", "=", 812],
  ["Cn1ncnc1[C@H]1c2n[nH]c(=O)c3cc(F)cc(c23)N[C@@H]1c1ccc(F)cc1 + COC1C(OC(N)=O)C(O)C(Oc2ccc3c(O)c(NC(=O)c4ccc(O)c(CC=C(C)C)c4)c(=O)oc3c2C)OC1(C)C", "nM", ">", 100],
  ["C=CC(=O)N1CCN(c2nc(=O)n(-c3c(C)ccnc3C(C)C)c3nc(-c4c(O)cccc4F)c(F)cc23)C(C)C1 (configuration not stated) + Nc1ccc(C#CCN(C(=O)Cc2ncc(C(F)(F)F)cc2C(F)(F)F)c2ccc(F)cc2)nn1", "nM", ">", 10000],
  ["CCc1c2c(nc3ccc(O)cc13)-c1cc3c(c(=O)n1C2)COC(=O)[C@]3(O)CC + Nc1ccc(C#CCN(C(=O)Cc2ncc(C(F)(F)F)cc2C(F)(F)F)c2ccc(F)cc2)nn1", "nM", "=", 14.8],
  ["CNCc1ccc(-c2[nH]c3cc(F)cc4c3c2CCNC4=O)cc1 + Nc1ccc(C#CCN(C(=O)Cc2ncc(C(F)(F)F)cc2C(F)(F)F)c2ccc(F)cc2)nn1", "nM", "=", 7180],
  ["CC[C@@]1(O)C(=O)OCc2c1cc1n(c2=O)Cc2cc3c(CN(C)C)c(O)ccc3nc2-1 + Cc1cccc(N(C)C(=O)C2C(O)CCN2c2nc(C)cc(C(F)(F)F)c2C#N)c1", "nM", ">", 100],
  ["COc1cc(C2c3cc4c(cc3C(OC3OC5COC(C)OC5C(O)C3O)C3COC(=O)C23)OCO4)cc(OC)c1O (configuration not stated) + Cc1cccc(N(C)C(=O)C2C(O)CCN2c2nc(C)cc(C(F)(F)F)c2C#N)c1", "nM", ">", 10000]
]}

###

Measured viability, T/C, listed per entry for reference.
Test system: 616215-338-R-J1-PDC complex spheroid viability
Assay: Anticancer human tumor 616215-338-R-J1-PDC cell line growth inhibition [POLQ];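 also: spheroids exposed to compounds for one week before readout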;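 as to viability, T/C: percent viability relative to DMSO vehicle wells taken as 100%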
Conditions: second compound 1 µM; first compound 0.316 µM; stronger effect = lower value
Measure: viability, T/C (%)

{"columns": ["Compound", "Measure", "Observed Value"],
 "data": [
  ["COc1cc2cc(C(=O)CCC(=O)O)sc2cc1OC + Nc1ccc(C#CCN(C(=O)Cc2ncc(C(F)(F)F)cc2C(F)(F)F)c2ccc(F)cc2)nn1", "viability, T/C", 101],
  ["COc1ccc([C@@H](O)c2cc(-c3ncnc4cc(N5CCOCC5)ccc34)c(F)cc2Cl)nn1 + Nc1ccc(C#CCN(C(=O)Cc2ncc(C(F)(F)F)cc2C(F)(F)F)c2ccc(F)cc2)nn1", "viability, T/C", 94.5],
  ["C=CCn1c(=O)c2cnc(Nc3ccc(N4CCN(C)CC4)cc3)nc2n1-c1cccc(C(C)(C)O)n1 + Cc1cccc(N(C)C(=O)C2C(O)CCN2c2nc(C)cc(C(F)(F)F)c2C#N)c1", "viability, T/C", 58.4]
]}

###

Tested on: 616215-338-R-J1-PDC complex spheroid viability
Experiment: Anticancer human tumor 616215-338-R-J1-PDC cell line growth inhibition [POLQ];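 also: spheroids exposed to compounds for one week before readout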;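 as to viability, T/C: percent viability relative to DMSO vehicle wells taken as 100%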
Conditions: second compound 0.1 µM; first compound 0.316 µM; stronger effect = lower value
Protocol: Multicellular complex tumor spheroid response to Polymerase (POL) inhibitors (novobiocin, ART-558, RP6685) in combination with a variety of drugs and investigational agents in selected tumor cell lines The POL inhibitors (novobiocin, ART-558, and RP6685) were evaluated both individually and in combination with standard of care and investigational anticancer small molecules within a complex spheroid model of solid tumors. . […]
Measured viability, T/C, listed per entry for reference.

{"columns": ["Compound", "Measure Unit", "viability, T/C"],
 "data": [
  ["O=C(Nc1ccc(O)c(NS(=O)(=O)c2ccc(F)cc2)c1)c1ccc(-c2ccccc2)cc1 + Nc1ccc(C#CCN(C(=O)Cc2ncc(C(F)(F)F)cc2C(F)(F)F)c2ccc(F)cc2)nn1", "%", 114],
  ["CC1COCCN1c1cc(-c2ccnn2C)c2ccnc(-c3ccn[nH]3)c2n1 (stereo unspecified) + Cc1cccc(N(C)C(=O)C2C(O)CCN2c2nc(C)cc(C(F)(F)F)c2C#N)c1", "%", 69.5],
  ["CCc1cc2c(N3CCc4c(cc(Cn5ccnc5)cc4-c4cn(C)nc4C(F)(F)F)C3=O)cc(C)nc2c(OC)n1 + Cc1cccc(N(C)C(=O)C2C(O)CCN2c2nc(C)cc(C(F)(F)F)c2C#N)c1", "%", 74.8],
  ["COc1cc2cc(C(=O)CCC(=O)O)sc2cc1OC + Nc1ccc(C#CCN(C(=O)Cc2ncc(C(F)(F)F)cc2C(F)(F)F)c2ccc(F)cc2)nn1", "%", 117],
  ["COc1cc(C2c3cc4c(cc3C(OC3OC5COC(C)OC5C(O)C3O)C3COC(=O)C23)OCO4)cc(OC)c1O (stereo unspecified) + Nc1ccc(C#CCN(C(=O)Cc2ncc(C(F)(F)F)cc2C(F)(F)F)c2ccc(F)cc2)nn1", "%", 57.6],
  ["COc1cccc(OCCCN)c1-c1cc(Nc2cnc(C#N)cn2)n[nH]1 + Nc1ccc(C#CCN(C(=O)Cc2ncc(C(F)(F)F)cc2C(F)(F)F)c2ccc(F)cc2)nn1", "%", 42.6]
]}

###

Test system: 616215-338-R-J1-PDC complex spheroid viability
Assay: Anticancer human tumor 616215-338-R-J1-PDC cell line growth inhibition [POLQ];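 also: spheroids exposed to compounds for one week before readout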;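 as to viability, T/C: percent viability relative to DMSO vehicle wells taken as 100%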
Settings: second compound 0.0316 µM; first compound 0.1 µM; stronger effect = lower value

{"columns": ["Compound", "Measure Unit", "viability, T/C"],
 "data": [
  ["C=CCn1c(=O)c2cnc(Nc3ccc(N4CCN(C)CC4)cc3)nc2n1-c1cccc(C(C)(C)O)n1 + COC1C(OC(N)=O)C(O)C(Oc2ccc3c(O)c(NC(=O)c4ccc(O)c(CC=C(C)C)c4)c(=O)oc3c2C)OC1(C)C", "%", 113],
  ["CCc1c2c(nc3ccc(O)cc13)-c1cc3c(c(=O)n1C2)COC(=O)[C@]3(O)CC + COC1C(OC(N)=O)C(O)C(Oc2ccc3c(O)c(NC(=O)c4ccc(O)c(CC=C(C)C)c4)c(=O)oc3c2C)OC1(C)C", "%", 49.2],
  ["CNCc1ccc(-c2[nH]c3cc(F)cc4c3c2CCNC4=O)cc1 + Cc1cccc(N(C)C(=O)C2C(O)CCN2c2nc(C)cc(C(F)(F)F)c2C#N)c1", "%", 99.2],
  ["CC(C)n1c(=O)n(C)c2cnc3cc(F)c(-c4ccc(OCCCN5CCCCC5)nc4)cc3c21 + Nc1ccc(C#CCN(C(=O)Cc2ncc(C(F)(F)F)cc2C(F)(F)F)c2ccc(F)cc2)nn1", "%", 92.2],
  ["CCCS(=O)(=O)Nc1ccc(F)c(C(=O)c2c[nH]c3ncc(-c4ccc(Cl)cc4)cc23)c1F + Cc1cccc(N(C)C(=O)C2C(O)CCN2c2nc(C)cc(C(F)(F)F)c2C#N)c1", "%", 95.5],
  ["CNCc1ccc(-c2[nH]c3cc(F)cc4c3c2CCNC4=O)cc1 + COC1C(OC(N)=O)C(O)C(Oc2ccc3c(O)c(NC(=O)c4ccc(O)c(CC=C(C)C)c4)c(=O)oc3c2C)OC1(C)C", "%", 99.8],
  ["Nc1ccn(C2OC(CO)C(O)C2(F)F)c(=O)n1 (configuration not stated) + COC1C(OC(N)=O)C(O)C(Oc2ccc3c(O)c(NC(=O)c4ccc(O)c(CC=C(C)C)c4)c(=O)oc3c2C)OC1(C)C", "%", 32.9]
]}
